molecular target: Amine oxidase [flavin-containing] A (Homo sapiens, UniProt P21397); assay: Inhibition of human recombinant MAO-A after 1 hr by MAO-Glo assay
Sequence (P21397 whole entry): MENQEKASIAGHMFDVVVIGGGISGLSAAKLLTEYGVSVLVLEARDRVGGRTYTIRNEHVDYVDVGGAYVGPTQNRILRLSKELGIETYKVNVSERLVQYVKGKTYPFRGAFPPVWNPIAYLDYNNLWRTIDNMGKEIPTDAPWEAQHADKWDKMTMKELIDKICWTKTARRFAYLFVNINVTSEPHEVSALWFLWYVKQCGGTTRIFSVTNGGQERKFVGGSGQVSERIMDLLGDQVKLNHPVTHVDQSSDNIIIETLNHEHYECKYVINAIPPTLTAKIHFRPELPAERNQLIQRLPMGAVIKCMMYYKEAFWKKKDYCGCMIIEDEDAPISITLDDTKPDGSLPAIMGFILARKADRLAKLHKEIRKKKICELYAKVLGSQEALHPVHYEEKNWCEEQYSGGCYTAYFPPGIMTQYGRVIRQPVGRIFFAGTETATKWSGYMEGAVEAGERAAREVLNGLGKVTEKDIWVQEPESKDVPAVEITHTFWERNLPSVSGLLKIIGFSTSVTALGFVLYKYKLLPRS
recordedMetric: IC50

Query: Any idea what IC50 was measured for COc1ccc2c3ccnc(Cl)c3n(CC#N)c2c1 ?
Reply: > 10 µM

====

Molecular target: UniProt:Q92630
Sequence (Q92630 whole entry): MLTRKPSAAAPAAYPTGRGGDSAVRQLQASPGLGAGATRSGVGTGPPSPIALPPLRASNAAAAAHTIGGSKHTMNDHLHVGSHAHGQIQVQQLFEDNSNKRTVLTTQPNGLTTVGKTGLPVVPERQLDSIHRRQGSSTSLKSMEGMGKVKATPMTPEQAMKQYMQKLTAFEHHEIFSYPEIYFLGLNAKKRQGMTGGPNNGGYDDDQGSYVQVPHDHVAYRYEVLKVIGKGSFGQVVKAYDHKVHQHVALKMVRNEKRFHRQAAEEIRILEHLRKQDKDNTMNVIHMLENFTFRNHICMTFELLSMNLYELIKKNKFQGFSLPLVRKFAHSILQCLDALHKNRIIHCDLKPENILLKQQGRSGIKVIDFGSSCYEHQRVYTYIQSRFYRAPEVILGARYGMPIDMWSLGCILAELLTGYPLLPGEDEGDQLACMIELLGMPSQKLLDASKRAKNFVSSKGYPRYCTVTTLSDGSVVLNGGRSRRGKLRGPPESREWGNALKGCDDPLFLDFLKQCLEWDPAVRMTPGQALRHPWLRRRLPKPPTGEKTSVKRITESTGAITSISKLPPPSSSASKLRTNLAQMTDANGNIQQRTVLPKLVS
recordedMetric: pIC50
Give bare numbers, as −log10 of the molar value.

Query: // returns reported pIC50 for input CN1C(=O)/C(=C\c2ccc3c(c2)OCO3)N=C1N
Reply: 6.31

====

target: Dual specificity tyrosine-phosphorylation-regulated kinase 1A (Homo sapiens); experiment: Inhibition of DYRK1A (unknown origin) by cell-based assay
recordedMetric: IC50 (nM)
Answers are plain numbers, in nM.

Query: I have this compound here, CC(C)[C@H](CO)Nc1nc(Nc2cccc(Cl)c2)c2ncn(C(C)C)c2n1 [PURVALANOLA] , and I need its recorded IC50.
Reply: 300

====

molecular target: Dual specificity tyrosine-phosphorylation-regulated kinase 1A (Homo sapiens, UniProt Q13627); assay: Inhibition of GST-tagged DYRK1A (unknown origin) expressed in Escherichia coli DH5alpha using RRRFRPASPLRGPPK as substrate after 30 mins by kinase-glo luminescence assay
recordedMetric: IC50
The reply should read as a number followed by its unit.

Query: Requested field: IC50. Item: COc1ccc2c3ccnc(C)c3n(CC#N)c2c1
Reply: 81 nM

====

molecular target: Dual specificity tyrosine-phosphorylation-regulated kinase 1A (Rattus norvegicus); assay: Inhibition of rat DYRK1A using KKISGRLSPIMTEQ as substrate in presence of [gamma-33P]ATP after 30 mins by scintillation counting analysis
recordedMetric: IC50 (nM)
One number for each entry, in nM.

Query: Entry O=c1[nH]c(NCCO)nc2ccc3[nH]ncc3c12 : reported IC50 = ?
Reply: 610

====

target: Dual specificity tyrosine-phosphorylation-regulated kinase 1A (Homo sapiens, UniProt Q13627); test: Inhibition of human recombinant full length GST-tagged DYRK1A expressed in baculovirus expression system assessed as decrease in tau phosphorylation at S396 preincubated for 10 mins followed by tau addition by Western blot analysis
recordedMetric: IC50
Show the value, then the unit it is measured in.

Query: Given the molecule Cc1nccc2c1[nH]c1cc(O)ccc12 , what is its reported IC50?
Reply: 90 nM

====

target: UniProtKB Q9Y463; assay: Inhibition of DYRK1B (unknown origin)
Sequence (Q9Y463 whole entry): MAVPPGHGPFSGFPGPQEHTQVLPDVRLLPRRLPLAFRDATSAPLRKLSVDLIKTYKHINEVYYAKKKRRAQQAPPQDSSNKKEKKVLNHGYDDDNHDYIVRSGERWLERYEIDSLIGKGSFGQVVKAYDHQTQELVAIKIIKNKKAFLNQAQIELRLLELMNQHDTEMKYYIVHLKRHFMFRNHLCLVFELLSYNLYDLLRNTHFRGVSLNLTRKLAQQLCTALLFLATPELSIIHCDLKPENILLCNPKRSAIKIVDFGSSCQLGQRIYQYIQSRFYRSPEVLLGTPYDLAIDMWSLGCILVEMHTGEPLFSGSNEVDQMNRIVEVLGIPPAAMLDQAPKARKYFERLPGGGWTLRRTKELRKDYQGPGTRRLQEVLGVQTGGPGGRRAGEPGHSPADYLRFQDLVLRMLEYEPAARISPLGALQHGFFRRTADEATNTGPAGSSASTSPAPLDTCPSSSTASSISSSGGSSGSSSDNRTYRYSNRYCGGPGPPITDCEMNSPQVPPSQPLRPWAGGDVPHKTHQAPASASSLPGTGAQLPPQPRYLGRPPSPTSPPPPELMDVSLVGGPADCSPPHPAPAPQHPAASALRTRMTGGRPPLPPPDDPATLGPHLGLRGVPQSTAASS
recordedMetric: IC50 (µM)
Numbers only, in µM.

Query: Which measured IC50 value corresponds to COc1cc(-c2cc(=O)c3c(O)cc(O)c(C/C=C(\C)CCC=C(C)C)c3o2)ccc1O ?
Reply: 6.4

====

target: UniProtKB Q9Y463; experiment: Inhibition of human recombinant full length N-terminal GST-tagged DYRK1B expressed in baculovirus expression system using DYRKtide-F as substrate after 1 hr by electrophoretic analysis
recordedMetric: IC50 (nM)
Answers are plain numbers, in nM.

Query: Which IC50 value is on record for N=C1NC(=O)/C(=C/c2ccc3c(c2)CCO3)S1 ?
Reply: 24.1
